From: patent US7888474B2

Molecular target: HDM2 (Homo sapiens)
Experiment: TdF assay (thermal melting with Sypro Orange)
Assay type: binding
Conditions: 6 uM HDM2, 10 mM HEPES pH 7.4, 150 mM NaCl, 1 mM DTT, 10 and 20 uM compound
quantity measured: Kd

(Q) Suppose we examine the molecule COCCOc1ccccc1N1CCN(C(=O)[C@]2(Oc3ccc(C(F)(F)F)cc3)CCCN(C(=O)c3cnccc3C(F)(F)F)[C@@H]2C(O)C(C)O)CC1 (stereo partly shown) ; what Kd value has been reported?
(A) < 2 µM

* * *

Molecular target: HDM2 (Homo sapiens, UniProt Q00987)
Sequence (Q00987 whole entry): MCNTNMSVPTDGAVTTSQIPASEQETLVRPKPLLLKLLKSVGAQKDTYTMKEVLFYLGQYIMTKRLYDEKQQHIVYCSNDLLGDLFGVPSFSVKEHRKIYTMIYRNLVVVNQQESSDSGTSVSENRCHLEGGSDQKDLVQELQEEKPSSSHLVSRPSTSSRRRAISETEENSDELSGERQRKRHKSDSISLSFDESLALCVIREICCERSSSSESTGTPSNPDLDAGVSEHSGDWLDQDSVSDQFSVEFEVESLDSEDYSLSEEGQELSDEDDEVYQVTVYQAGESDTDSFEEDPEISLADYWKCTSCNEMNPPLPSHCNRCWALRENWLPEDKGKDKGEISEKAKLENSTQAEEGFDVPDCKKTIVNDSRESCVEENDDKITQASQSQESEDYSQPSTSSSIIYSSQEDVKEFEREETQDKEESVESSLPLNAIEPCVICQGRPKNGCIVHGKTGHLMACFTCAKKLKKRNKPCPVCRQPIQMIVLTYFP
quantity measured: IC50

(Q) Suppose we examine the compound O=C(c1cnccc1C(F)(F)F)N1CCCC(Oc2ccc(C(F)(F)F)cc2)(C(=O)N2CCN(c3ccccn3)CC2)C1 (stereo not shown) [Compound 1] ; what IC50 value has been reported?
(A) < 5 µM
